// reported pIC50 for each item listed
Test system: NIH3T3 healthy cell line
Assay: MTT cytotoxicity assay (24 h), healthy cell line NIH3T3
Assay type: cell-based
Conditions: Mus musculus, NIH3T3, 24 h, means of quartet assays
Just so you know, pIC50 here is -log10 of the concentration in molar units; reply with that number alone.

Example entries begin here.
CCCNc1nnc(SCC(=O)N2N=C(c3ccccc3)CC2c2ccc([N+](=O)[O-])cc2)s1 (stereo not shown) = 4.33
O=C(CSc1nnc(Nc2ccc(Cl)cc2)s1)N1N=C(c2ccccc2)CC1c1ccc([N+](=O)[O-])cc1 (stereo not shown) = 4.32
O=C(CSc1nnc(NC2CCCCC2)s1)N1N=C(c2ccccc2)CC1c1ccc([N+](=O)[O-])cc1 (stereo not shown) = 4.22
CCNc1nnc(SCC(=O)N2N=C(c3ccccc3)CC2c2ccc([N+](=O)[O-])cc2)s1 (stereo not shown) = 4.06

Query: Value lookup for pIC50; key = CC(C)Nc1nnc(SCC(=O)N2N=C(c3ccccc3)CC2c2ccc([N+](=O)[O-])cc2)s1 (stereo not shown)
Result: 4.48

* * *

Some molecules, each annotated with its measured pIC50.
System: MCF-7 cell line
Assay: MTT cytotoxicity assay (24 h), MCF-7 cell line
Format: cell-based
Conditions: MTT, 24 h, MCF-7 cell line; means of quartet assays
// pIC50 here means minus log10 of the molar concentration (mol/L)

// worked examples, pIC50 included
C=CCNc1nnc(SCC(=O)N2N=C(c3ccccc3)CC2c2ccc([N+](=O)[O-])cc2)s1 (stereo not drawn) = 4.45
O=C(CSc1nnc(Nc2ccccc2)s1)N1N=C(c2ccccc2)CC1c1ccc([N+](=O)[O-])cc1 (stereo not drawn) = 4.80

Query: Consider the molecule shown here: O=C(CSc1nnc(Nc2ccc(Cl)cc2)s1)N1N=C(c2ccccc2)CC1c1ccc([N+](=O)[O-])cc1 (stereo not drawn) What is its recorded pIC50?
Result: 4.17

* * *

System: A549 cell line
Assay: MTT cytotoxicity assay (24 h), A549 cell line
Type: cell-based
Details: selectivity index, NIH3T3 vs A549
In this section, each of the compounds is paired with its reported SI for A549.
The answer should be a number; do not append a unit.

C=CCNc1nnc(SCC(=O)N2N=C(c3ccccc3)CC2c2ccc([N+](=O)[O-])cc2)s1 (stereo not shown) = 2.3
O=C(CSc1nnc(Nc2ccc(Cl)cc2)s1)N1N=C(c2ccccc2)CC1c1ccc([N+](=O)[O-])cc1 (stereo not shown) = 5.68

Continue with the next compound.
Query: Recorded SI for A549 of CCNc1nnc(SCC(=O)N2N=C(c3ccccc3)CC2c2ccc([N+](=O)[O-])cc2)s1 (stereo not shown) , please.
Result: 6.24

* * *

Tested on: NIH3T3 healthy cell line
Test: MTT cytotoxicity assay (24 h), healthy cell line NIH3T3
Format: cell-based
Details: Mus musculus, NIH3T3, 24 h, means of quartet assays
property: IC50 (µM)
Give the value in µM but do not write µM after it.

C=CCNc1nnc(SCC(=O)N2N=C(c3ccccc3)CC2c2ccc([N+](=O)[O-])cc2)s1 (stereo not drawn) = 11.9

Query: Could you share what IC50 was measured for O=C(CSc1nnc(Nc2ccccc2)s1)N1N=C(c2ccccc2)CC1c1ccc([N+](=O)[O-])cc1 (stereo not drawn) , tested on NIH3T3 healthy cell line?
Result: 11.1

* * *

Target: UniProt P00533
Sequence (P00533 25-1210): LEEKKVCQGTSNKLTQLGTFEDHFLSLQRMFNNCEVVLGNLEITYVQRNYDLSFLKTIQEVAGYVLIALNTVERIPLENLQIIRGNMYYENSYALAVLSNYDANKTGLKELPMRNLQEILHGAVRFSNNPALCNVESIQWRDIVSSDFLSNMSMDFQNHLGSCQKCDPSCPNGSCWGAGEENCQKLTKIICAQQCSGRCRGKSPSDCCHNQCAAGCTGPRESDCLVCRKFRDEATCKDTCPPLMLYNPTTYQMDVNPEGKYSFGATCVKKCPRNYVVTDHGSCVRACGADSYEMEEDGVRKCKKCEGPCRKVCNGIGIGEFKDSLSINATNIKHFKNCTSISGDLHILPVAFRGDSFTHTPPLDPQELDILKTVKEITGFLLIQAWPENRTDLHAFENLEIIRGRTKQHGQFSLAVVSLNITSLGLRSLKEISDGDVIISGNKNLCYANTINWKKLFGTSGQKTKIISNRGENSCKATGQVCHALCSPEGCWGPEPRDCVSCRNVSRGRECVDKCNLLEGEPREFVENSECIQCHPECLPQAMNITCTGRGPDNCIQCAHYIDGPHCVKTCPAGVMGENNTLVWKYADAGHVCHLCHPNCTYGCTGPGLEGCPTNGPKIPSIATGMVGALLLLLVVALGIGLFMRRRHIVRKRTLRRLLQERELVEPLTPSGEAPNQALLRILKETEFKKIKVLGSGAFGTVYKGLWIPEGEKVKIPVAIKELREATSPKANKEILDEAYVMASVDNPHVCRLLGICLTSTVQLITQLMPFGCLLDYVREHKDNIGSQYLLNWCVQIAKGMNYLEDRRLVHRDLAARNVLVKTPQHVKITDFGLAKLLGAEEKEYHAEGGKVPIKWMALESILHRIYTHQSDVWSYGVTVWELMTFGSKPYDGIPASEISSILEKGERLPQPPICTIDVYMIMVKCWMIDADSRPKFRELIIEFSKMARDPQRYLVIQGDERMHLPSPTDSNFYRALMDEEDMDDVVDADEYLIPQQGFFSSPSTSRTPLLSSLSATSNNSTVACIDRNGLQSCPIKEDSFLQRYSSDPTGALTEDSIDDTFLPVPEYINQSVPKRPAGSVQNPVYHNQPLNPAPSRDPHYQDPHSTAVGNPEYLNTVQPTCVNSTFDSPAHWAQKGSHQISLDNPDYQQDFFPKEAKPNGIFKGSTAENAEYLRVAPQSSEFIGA
property: pIC50
Friendly reminder that pIC50 comes from taking -log10 of the concentration in mol/L.

Query: Look up pIC50 with UniProt P00533 for this compound: O=C(CSc1nnc(Nc2ccccc2)s1)N1N=C(c2ccccc2)CC1c1ccc([N+](=O)[O-])cc1 (stereo not shown)
Result: 7.62
